target: Calmodulin-1 (Homo sapiens); assay: CALM1 binders on microarrays, EGTA buffer, profiling panel, biochemical, small-molecule microarray, Cy5-labelled CALM1 (AID 1111); settings: Cy5-CALM1 binding fluorescence, higher = more signal;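 further: labelled calmodulin applied in Tris saline Tween buffer holding calcium plus EGTA and DTT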
Would you kindly list composite z-score for each of these compounds?
No unit in the answer, please; the number alone is enough.

Query: Return reported composite z-score; argument: C=CCNC(=O)[C@@H]1[C@H]2C(=O)O[C@H](c3ccccc3)[C@H](c3ccccc3)N2[C@H](c2ccc(OCCO)cc2)[C@@]12C(=O)Nc1ccc(C#Cc3ccc(OC)cc3)cc12
Response: 1.63

Query: Return reported composite z-score; argument: [N-]=[N+]=Nc1ccccc1[C@H]1OC(c2ccc(OCCCO)cc2)=N[C@@]1(Cc1ccccc1)C(=O)O
Response: 0.577

Query: Return reported composite z-score; argument: O=C1OCCC/C=C\[C@H]2OC34C=CCN(Cc5ccccc5)C(=O)[C@H]3N(CCCCCCO)C(=O)[C@@H]4C12 (some centres not stated)
Response: -0.046

Query: Return reported composite z-score; argument: COCCOC(=O)N1C(=O)[C@@]2(c3cc(C#CC4=CCCCC4)ccc31)[C@H](c1ccc(O)cc1)N1[C@H](c3ccccc3)[C@H](c3ccccc3)OC(=O)[C@H]1[C@@H]2C(N)=O
Response: 0.624

Query: Return reported composite z-score; argument: CCCCC(=C=CC[C@@H](O)c1ccccc1OCCO)CCO
Response: 0.184

Query: Return reported composite z-score; argument: CCN(CC)c1ccc(N2CC=CC34O[C@@H]5/C=C\CCCOC(=O)C5[C@H]3C(=O)N(CCO)[C@@H]4C2=O)cc1 (some centres not stated)
Response: -0.557

Query: Return reported composite z-score; argument: C=CCOC(=O)[C@@H]1[C@H]2C(=O)O[C@H](c3ccccc3)[C@H](c3ccccc3)N2[C@H](c2ccc(OCCOC(=O)[C@@H]3C[C@@H]4C(=O)N5CCC[C@H]5C(=O)N4[C@@H]3c3ccc(O)cc3)cc2)[C@@]12C(=O)Nc1ccc(I)cc12
Response: 2.06

Ref: PubChem BioAssay
